Test system: Fibroblast
Assay: Multiplex assay against human fibroblast
Format: toxicity, cell-based
Conditions: 12 h, 10 µM, compound concentration 10 uM, replicate 2
Decision: Population Pyknosed Nuclei (%) beneath 10% gives Satisfied; Population Pyknosed Nuclei (%) meeting or exceeding 10% gives Not satisfied.

>>> print(df.to_string())
                                    compound  qualitative_label
 0  Cl.NC[C@@H]1O[C@H](C23CC4CC(CC(C4)C2)C3)Cc2c1ccc(O)c2O      Not satisfied
 1  C=CC(=O)Nc1cc(-n2c(=O)ccc3cnc4ccc(-c5ccc(NS(C)(=O)=O)cc5)cc4c32)ccc1C      Not satisfied
 2  Cc1c(Nc2ccc(S(=O)(=O)N3CCN(C)CC3)cc2F)nc2ccc(Nc3cnn(C4CC4)c3)cn2c1=O          Satisfied
 3  CC[C@@H]1C(=O)N(C)c2cnc(Nc3ccc(C(=O)NC4CCN(C)CC4)cc3OC)nc2N1C1CCCC1          Satisfied
 4  Oc1cccc(-c2nc(N3CCOCC3)c3oc4ncccc4c3n2)c1      Not satisfied
 5  CCOC(=O)CCNc1cc(N2CCc3ccccc3CC2)nc(-c2ccccn2)n1          Satisfied
 6  CCCCCNC(=N)N/N=C/c1c[nH]c2ccc(OC)cc12.O=C(O)/C=C\C(=O)O [TEGASEROD MALEATE]      Not satisfied
 7  N#CCNC(=O)c1ccc(-c2ccnc(Nc3ccc(N4CCOCC4)cc3)n2)cc1      Not satisfied
 8  Cc1ccc(S(=O)(=O)NC2c3ccccc3Oc3ccccc32)cc1      Not satisfied
 9  Cl.Cn1c2c(c3ccc(Cl)c(Cl)c31)C(C#N)C1(CCNCC1)NC2=O (stereo not drawn)      Not satisfied
10  c1ccc(-c2oc3ncnc(NC[C@@H]4CCCO4)c3c2-c2ccccc2)cc1      Not satisfied
11  N#Cc1cccc(C(=O)Nc2cc(-c3ccccc3)nn2-c2ccccc2)c1      Not satisfied
12  CN(c1cc(C(F)(F)F)nc(OCCC(=O)O)n1)c1cccc2c1CCC2          Satisfied
13  CN1C(=O)[C@@H](NC(=O)c2cc3ccccc3[nH]2)N=C(c2ccccc2)c2ccccc21 [DEVAZEPIDE]          Satisfied
14  CC(C)[C@H](CO)Nc1nc(Nc2cccc(Cl)c2)c2ncn(C(C)C)c2n1          Satisfied
15  C[C@@H](Oc1cc(-n2cnc3ccc(CN4CCN(C)CC4)cc32)sc1C(N)=O)c1ccccc1C(F)(F)F      Not satisfied

----------
Tested on: Fibroblast
Assay: Multiplex assay against human fibroblast
Type: toxicity, cell-based
Conditions: 12 h, 10 µM, compound concentration 10 uM, replicate 1
experimental endpoint: Population Normal (%)

                                   compound  experimental_endpoint  result_unit  quantitative_readout
0  C=CC(=O)Nc1cc(-n2c(=O)ccc3cnc4ccc(-c5ccc(NS(C)(=O)=O)cc5)cc4c32)ccc1C  Population Normal (%)            %                    91
1  CCCc1cc(C)[nH]c(=O)c1CNC(=O)c1cc(-c2ccc(N3CCN(C(C)C)CC3)nc2)cc2c1cnn2C(C)C  Population Normal (%)            %                    70
2  CC(/C=C1\SC(=S)N(CCCC(=O)Nc2ccc(C(=O)O)c(O)c2)C1=O)=C\c1ccccc1  Population Normal (%)            %                    38
3  Cc1c(P(=S)(c2ccccc2)c2ccccc2)n2ccccc2[n+]1C/C=C/c1ccccc1.[Br-]  Population Normal (%)            %                    85
4  Cc1c(Nc2ccc(S(=O)(=O)N3CCN(C)CC3)cc2F)nc2ccc(Nc3cnn(C4CC4)c3)cn2c1=O  Population Normal (%)            %                    87
5  CC[C@@H]1C(=O)N(C)c2cnc(Nc3ccc(C(=O)NC4CCN(C)CC4)cc3OC)nc2N1C1CCCC1  Population Normal (%)            %                    77
6  CCOc1ccn(-c2ccc(F)cc2)c(=O)c1C(=O)Nc1ccc(Oc2ccnc(N)c2Cl)c(F)c1  Population Normal (%)            %                    84
7  CN1C(=O)[C@@H](NC(=O)c2cc3ccccc3[nH]2)N=C(c2ccccc2)c2ccccc21 [DEVAZEPIDE]  Population Normal (%)            %                    83
8  Oc1cccc(-c2nc(N3CCOCC3)c3oc4ncccc4c3n2)c1  Population Normal (%)            %                    76
9  CN(c1cc(C(F)(F)F)nc(OCCC(=O)O)n1)c1cccc2c1CCC2  Population Normal (%)            %                    88
